Target: CREBBP bromodomain (His-CREBBP (1081-1197)) (Homo sapiens (Human), UniProt Q92793)
Sequence (Q92793 1081-1197): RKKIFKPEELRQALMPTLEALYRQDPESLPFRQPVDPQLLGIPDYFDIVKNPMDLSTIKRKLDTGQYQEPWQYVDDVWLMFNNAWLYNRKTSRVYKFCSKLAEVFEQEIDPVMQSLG
Test: AlphaScreen in-vitro binding assay for CREBBP
Settings: acetyl-histone H4 peptide
Result Type: IC50

Check out these entries, answers already filled in.
>  <Compound>
COc1ncc(-n2nc(C)c3c2C(c2ccc(Cl)cc2)N(c2cc(C)c(=O)n(C)c2)C3=O)cn1 (stereo not drawn) [Example 21a]

>  <Test Target>
CREBBP bromodomain (His-CREBBP (1081-1197)) (Homo sapiens (Human), UniProt Q92793)

>  <IC50>
> 11100 nM

$$$$
>  <Compound>
Cc1cc(N2C(=O)c3c(C4CC4)n[nH]c3[C@H]2c2ccc(Cl)cc2)cn(C)c1=O [Example 24]

>  <Test Target>
CREBBP bromodomain (His-CREBBP (1081-1197)) (Homo sapiens (Human), UniProt Q92793)

>  <IC50>
1700 nM

$$$$
>  <Compound>
Cc1nn(-c2cccnc2F)c2c1C(=O)N(c1cc(C)c(=O)n(C)c1)C2c1ccc(Cl)cc1 (stereo not drawn) [Example 19]

>  <Test Target>
CREBBP bromodomain (His-CREBBP (1081-1197)) (Homo sapiens (Human), UniProt Q92793)

>  <IC50>
3800 nM

$$$$
>  <Compound>
Cc1cc(N2C(=O)c3c(C4CC4)n[nH]c3C2c2ccc(Cl)cc2)cn(C)c1=O (stereo not drawn) [Example 23]

>  <Test Target>
CREBBP bromodomain (His-CREBBP (1081-1197)) (Homo sapiens (Human), UniProt Q92793)

>  <IC50>
3300 nM

$$$$
>  <Compound>
COc1ncccc1-n1nc2c(c1C)C(=O)N(c1cc(Cl)c(=O)n(C)c1)C2c1ccc(Cl)cc1 (stereo not drawn) [Example 7b]

>  <Test Target>
CREBBP bromodomain (His-CREBBP (1081-1197)) (Homo sapiens (Human), UniProt Q92793)

>  <IC50>
1900 nM

$$$$

Give one value of IC50 per listed compound.
1. Cc1[nH]nc2c1C(=O)N(c1cc(C)c(=O)n(C)c1)C2c1ccc(Cl)cc1 (stereo not drawn) [Example 9]
2. COc1ncccc1-c1nn(C)c2c1C(=O)N(c1cc(C)c(=O)n(C)c1)[C@@H]2c1ccc(Cl)cc1 [Example 16]
3. COc1ncccc1-c1nn(C)c2c1C(=O)N(c1cc(C)c(=O)n(C)c1)C2c1ccc(Cl)cc1 (stereo not drawn) [Example 15]
4. Cc1cc(N2C(=O)c3c(C4CC4)nn(C)c3C2c2ccc(Cl)cc2)cn(C)c1=O (stereo not drawn) [Example 1]
5. Cc1nn(C)c2c1C(=O)N(c1cc(C)c(=O)n(C)c1)C2c1ccc(Cl)cc1 (stereo not drawn) [Example 10]
6. Cc1nn(C(C)C)c2c1C(=O)N(c1cc(C)c(=O)n(C)c1)C2c1ccc(Cl)cc1 (stereo not drawn) [Example 12]
7. COCCn1nc(C2CC2)c2c1C(c1ccc(Cl)cc1)N(c1cc(C)c(=O)n(C)c1)C2=O (stereo not drawn) [Example 4]
8. COc1ncc(-n2nc3c(c2C)C(=O)N(c2cc(Cl)c(=O)n(C)c2)C3c2ccc(Cl)cc2)cn1 (stereo not drawn) [Example 8b]

result:
1: 3000 nM; 2: 545 nM; 3: 1000 nM; 4: 1400 nM; 5: 3000 nM; 6: 1400 nM; 7: 3000 nM; 8: 5400 nM

Answer for every listed entry: what is its IC50? The entries follow.
1. Cc1[nH]nc2c1C(=O)N(c1cc(Cl)c(=O)n(C)c1)[C@@H]2c1ccc(Cl)cc1 [Example 28]
2. CCOc1ncccc1-n1nc2c(c1C)C(=O)N(c1cc(C)c(=O)n(C)c1)C2c1ccc(Cl)cc1 (stereo not drawn) [Example 18b]

result:
2200 nM
1300 nM

For each listed entry, give its IC50.
1. Cc1[nH]nc2c1C(=O)N(c1cc(Cl)c(=O)n(C)c1)C2c1ccc(Cl)cc1 (stereo not drawn) [Example 6]
2. COc1ncc(-n2nc3c(c2C)C(=O)N(c2cc(C)c(=O)n(C)c2)C3c2ccc(Cl)cc2)cn1 (stereo not drawn) [Example 21b]
3. Cc1nn(C2CC2)c2c1C(=O)N(c1cc(C)c(=O)n(C)c1)C2c1ccc(Cl)cc1 (stereo not drawn) [Example 11]
4. COc1ccc(-n2nc(C)c3c2C(c2ccc(Cl)cc2)N(c2cc(C)c(=O)n(C)c2)C3=O)cc1 (stereo not drawn) [Example 13]
5. Cc1cc(N2C(=O)c3c(C4CC4)nn(-c4ccnn4C)c3[C@H]2c2ccc(Cl)cc2)cn(C)c1=O [Example 22]
6. COc1ncccc1-n1nc2c(c1C)C(=O)N(c1cc(C)c(=O)n(C)c1)[C@@H]2c1ccc(Cl)cc1 [Example 26]
7. COc1ncc(-n2nc(C)c3c2C(c2ccc(Cl)cc2)N(c2cc(Cl)c(=O)n(C)c2)C3=O)cn1 (stereo not drawn) [Example 8a]
8. Cc1cc(N2C(=O)c3c(C4CC4)nn(-c4ccnn4C)c3C2c2ccc(Cl)cc2)cn(C)c1=O (stereo not drawn) [Example 5]

result:
1: 4100 nM; 2: 4700 nM; 3: 1900 nM; 4: 2200 nM; 5: 2900 nM; 6: 1000 nM; 7: > 37000 nM; 8: 5000 nM

query: Recorded IC50 of COc1ncc(-n2nc3c(c2C)C(=O)N(c2cc(C)c(=O)n(C)c2)C3c2ccc(Cl)cc2)c(OC)n1 (stereo not drawn) [Example 14] , please.
result: 5100 nM
